- systemName: α1β2γ2 GABAA receptors (Homo sapiens (Human), UniProt P14867+P47870)
- measurementProtocol: Patch clamp electrophysiology (QPatch) of recombinant α1β2γ2 GABAA receptors in LTK cells
- Type: cell-based
- assaySetup: 10 μM test article, GABA EC20 = 2 μM, read-out: GABA (α1β2γ2) Qpatch in Ltk, % efficacy at 10 μM
Recorded Emax at 10 µM for the following compounds

INSERT INTO assay_data (structurenotation, value) VALUES
  ('COC[C@@]1(O)CC[C@@]2(C)[C@@H](CC[C@@H]3[C@@H]2CC[C@]2(C)[C@@H](C(=O)Cn4cc(C(F)(F)F)cn4)CC[C@@H]32)C1', '100 to 500%'),
  ('CCOc1cnn(CC(=O)[C@H]2CC[C@H]3[C@@H]4CC[C@@H]5C[C@](C)(O)CC[C@]5(C)[C@H]4CC[C@]23C)c1', '> 500%');

Proceed to the following item.
[ask] Look at this compound and give its reported Emax at 10 µM. C[C@@]1(O)CC[C@@]2(C)[C@H](CC[C@@H]3[C@@H]2CC[C@]2(C)[C@@H](C(=O)Cn4cc(Cl)cn4)CC[C@@H]32)C1
[reply] 100 to 500%
